Measured TGI accompanies every entry in the list below.
- Test system: SK-MEL-28 melanoma
- assayProtocol: NCI tumour cell line growth inhibition, 48 h

Look over these answered cases.
COc1cc(-c2cc(-c3ccc(Nc4nc(Nc5ccc(Cl)cc5)nc(Nc5ccc(Cl)cc5)n4)cc3)no2)cc(OC)c1OC ... > 100 µM
CC(C)c1cccc(C(C)C)c1NC(=O)/C(Cc1nc2ccc(Cl)cc2[nH]c1=O)=N\NC(=O)C[N+](C)(C)C ... > 100 µM
O=C1/C(=C/Cc2ccco2)N=C(c2ccccc2)N1c1nc2ccc(Sc3ccccc3)cc2[nH]1 ... 85 µM
COc1ccc(C2[C@@H](Cl)C(=O)N2c2ccc(OC)cc2)cc1 (stereo not given in full) ... > 100 µM
CC(C)(C)c1cc([Si](C)(C)C)c(C#N)c([Si](C)(C)C)c1 ... > 100 µM
Fc1ccc(Nc2ccnc(N3CCN(c4ccnc5cc(Cl)ccc45)CC3)n2)cc1 ... 12.9 µM
O=C(C#Cc1ccccc1)Nc1ccccc1CC(c1c[nH]c2ccccc12)c1c[nH]c2ccccc12 ... 32.4 µM
N/C(=N/O)NOCCC(N)C(=O)O (stereo not given) ... > 100 µM

Form field, TGI with SK-MEL-28 melanoma, item Oc1ccc(Cl)cc1N=Nc1c(O)ccc2ccccc12 : > 100 µM

Form field, TGI with SK-MEL-28 melanoma, item CC1O[C@@H]2CCCCC(=O)[C@]2(C)[C@H]1C (stereo not given in full) : > 100 µM

----------
- Tested on: RXF-631 renal
- assayProtocol: NCI tumour cell line growth inhibition, 48 h
measurementKind: TGI

Look over these answered cases.
CC1O[C@@H]2CCCCC(=O)[C@]2(C)[C@H]1C (some centres undefined) ... > 100 µM
CC(C)c1cccc(C(C)C)c1NC(=O)/C(Cc1nc2ccc(Cl)cc2[nH]c1=O)=N\NC(=O)C[N+](C)(C)C ... > 100 µM
N#Cc1cc([N+](=O)[O-])ccc1NC(=O)C(=O)Nn1c(=S)[nH]c2ccccc2c1=O ... > 100 µM
O=S1c2ccccc2N=C(c2cccs2)CC1c1ccccc1O (centres undefined) ... > 100 µM

TGI in this record for O=C1C2=C(c3ccccc31)C(c1ccc([N+](=O)[O-])cc1)NC(=S)N2 (centres undefined) : > 100 µM

TGI in this record for O/N=C1/C(=C/c2ccc(Br)cc2)CCCC1C(NO)c1ccc(Br)cc1 (centres undefined) : 30.8 µM

TGI in this record for Cn1cnc([N+](=O)[O-])c1Sc1nnc(-c2ccc(Cl)cc2)n1C : 30.9 µM

TGI in this record for O=C(C#Cc1ccccc1)Nc1ccccc1CC(c1c[nH]c2ccccc12)c1c[nH]c2ccccc12 : 74.6 µM

TGI in this record for COc1ccc(NC(=O)CC2SC(=Nc3ccc(Cl)cc3C)NC2=O)c([N+](=O)[O-])c1 (centres undefined) : > 100 µM

----------
- Test system: CCRF-CEM leukemia
- assayProtocol: NCI tumour cell line growth inhibition, 48 h
TGI vs 10 µM: at or above is YES, below is NO.

CC(=O)OCc1cc[c]([Hg][Cl])o1 ... NO
COc1cc(-c2cc(-c3ccc(Nc4nc(Nc5ccc(Cl)cc5)nc(Nc5ccc(Cl)cc5)n4)cc3)no2)cc(OC)c1OC ... YES
CCCCCCCCCCCCCC(=O)OCC1OC(=O)C(O)C1O (stereo unspecified) ... YES
O=[N+]([O-])c1ccc(NC(c2ccccc2)c2ccc3cccnc3c2O)cc1 (stereo unspecified) ... NO
N#Cc1cc([N+](=O)[O-])ccc1NC(=O)C(=O)Nn1c(=S)[nH]c2ccccc2c1=O ... YES
Cc1cc(S(=O)(=O)Nc2nc3ccccc3s2)c(SCc2ccccc2)cc1Cl ... YES

Input: Does TGI meet or surpass 10 µM for Cc1ccccc1C1SCc2nc3ccccc3n21 (stereo unspecified) ?
Output: YES

Input: Does TGI meet or surpass 10 µM for OC(CBr)C(O)C(O)C(O)CBr (stereo unspecified) ?
Output: YES

Input: Does TGI meet or surpass 10 µM for O=C1C2=C(c3ccccc31)C(c1ccc([N+](=O)[O-])cc1)NC(=S)N2 (stereo unspecified) ?
Output: YES

Input: Does TGI meet or surpass 10 µM for S=C1NC(c2ccccc2)NC(c2ccccc2)S1 (stereo unspecified) ?
Output: NO

Input: Does TGI meet or surpass 10 µM for CN(C)CCNC(=O)c1cccc2c(NC(CCCN=C(N)N)C(=O)O)c3ccccc3nc12 (stereo unspecified) ?
Output: YES

----------
- System: SR leukemia
- assayProtocol: NCI tumour cell line growth inhibition, 48 h
TGI vs 9 µM: at or above is 1, below is -1.

Take a look at these entries with their results.
Cc1ccnc2[nH]c(-c3ccc(Cl)cc3)cc(=O)c12 ... -1
c1ccc(C2SCc3nc4ccccc4n32)cc1 (configuration not stated) ... 1
CC(C)(C)c1cc([Si](C)(C)C)c(C#N)c([Si](C)(C)C)c1 ... 1
CN1CCN(CCCn2c3c(sc4ncccc43)c(=O)n3nnc(-c4ccccc4)c23)CC1 ... -1
CNC(=O)/C(C#N)=C(\N)N1CCCC1 ... 1

Next compound, please.
Input: Does TGI meet or surpass 9 µM for C=C1C(=O)O[C@H]2[C@H]1CC/C(COC(=O)NCCc1ccc(Br)cc1)=C\CC[C@@]1(C)O[C@@H]21 ?
Output: -1

----------
- Test system: DU-145 prostate
- assayProtocol: NCI tumour cell line growth inhibition, 48 h; in the data active = GI50 below about 0.43 µM; inactive = the rest
The categories you may choose from are active, inactive

Take a look at these entries with their results.
c1ccc2cc(Cn3c(-c4cccc5ccccc45)[n+](Cc4ccc5ccccc5c4)c4c5ccccc5c5ccccc5c43)ccc2c1 ... active
O=C(O)[C@@H](Cc1ccccc1)NS(=O)(=O)c1ccc(-c2ccccc2)cc1 ... inactive
C[C@H]1O[C@@H](O[C@H]2[C@@H](O)C[C@H](O[C@H]3[C@@H](O)C[C@H](O[C@H]4CC[C@]5(C)C6CC[C@]7(C)[C@@H](C8=CC(=O)OC8)CC[C@]7(O)C6CC[C@@H]5C4)O[C@@H]3C)O[C@@H]2C)C[C@H](O)[C@@H]1O (some centres not stated) ... active
O=C1NC(=O)/C(=C/c2ccc3nccc(-c4ccncc4)c3c2)S1 ... inactive
CN1CCN(CCCn2c3c(sc4ncccc43)c(=O)n3nnc(-c4ccccc4)c23)CC1 ... inactive

Input: Outcome? COc1ccc(N2CCN(c3nc(-c4ccccn4)nc4sc5c(c34)CCCCCC5)CC2)cc1
Output: inactive

Input: Outcome? COc1ccc(COc2ccc(Cc3cnc(N)nc3N)cc2OC)cc1
Output: inactive

----------
- Test system: OVCAR-8 ovarian
- assayProtocol: NCI tumour cell line growth inhibition, 48 h
Measured TGI accompanies every entry in the list below.

Look over these answered cases.
Cc1ccccc1C1SCc2nc3ccccc3n21 (stereo unspecified) ... > 100 µM
CCOC(=O)/C(C(N)=O)=C(/O)c1cnccn1 ... > 100 µM
Nc1cc2c3ccccc3ccc2c2ccccc12 ... > 100 µM
CCOC(=O)C(NS(=O)(=O)c1ccccc1)(C(F)(F)F)P(=O)(OCC(C)C)OCC(C)C (stereo unspecified) ... > 100 µM
O=C(NNC(=O)c1ccccc1O)c1cccs1 ... > 100 µM

TGI in this record for C[C@H]1O[C@@H](O[C@H]2[C@@H](O)C[C@H](O[C@H]3[C@@H](O)C[C@H](O[C@H]4CC[C@]5(C)C6CC[C@]7(C)[C@@H](C8=CC(=O)OC8)CC[C@]7(O)C6CC[C@@H]5C4)O[C@@H]3C)O[C@@H]2C)C[C@H](O)[C@@H]1O (stereo partly specified) : 0.0648 µM

TGI in this record for CN(C)CC(O)CNC(=O)Nc1ccccc1 (stereo unspecified) : > 100 µM

TGI in this record for COc1cc(OC)c(OC)cc1/C=C/c1ccc2ccccc2n1 : > 10 µM

TGI in this record for CC(NC(=O)C(NC(=O)C(NC(=O)C(F)(F)F)C(C)C)C(C)C)C(=O)Oc1c(Cl)c(Cl)c(Cl)c(Cl)c1Cl (stereo unspecified) : > 100 µM

----------
- Test system: UO-31 renal
- assayProtocol: NCI tumour cell line growth inhibition, 48 h
measurementKind: TGI

Look over these answered cases.
C/C(COc1ccccc1)=N\NC(N)=S ... > 100 µM
C#Cc1cccc(NC(=O)C2CCCCN2C(=O)CCl)c1 (stereo unspecified) ... 25.7 µM
COc1ccc(C2[C@@H](Cl)C(=O)N2c2ccc(OC)cc2)cc1 (stereo partly specified) ... > 100 µM
C#CCN1C(=O)CN2C(Cl)(Cl)C2(c2ccccc2)c2cc(Cl)ccc21 (stereo unspecified) ... > 100 µM
CN(C)c1ccc(/C=C(\C#N)C(=O)c2ccccc2)cc1Br ... > 100 µM

TGI in this record for COc1cc([C@@H]2c3cc4c(cc3[C@H](OC3OC5COC(C(C)C)OC5C(O)C3O)C3COC(=O)[C@@H]32)OCO4)cc(OC)c1OC (stereo partly specified) : 42.1 µM

From: PubChem BioAssay (NCI)
